Test system: Nucleic Acid
experiment.summary: Binding affinity to Salmon sperm DNA in phosphate buffer assessed as change in melting temperature by thermal denaturation assay
Assay type: nucleic-acid assay
experimental.parameters: Salmonidae
value.type: ΔTm (°C)
Numeric answer only, unit °C assumed.

Look over these answered cases.
Nc1ccc(C(=O)Nc2ccc(NC3=NCCN3)cc2)cc1
2
N=C(N)Nc1ccc(NC(=O)c2ccc(N)cc2)cc1
1
O=C(Nc1ccc(NC2=NCCN2)cc1)c1ccc(NC2=NCCN2)cc1
12.5
N=C(N)Nc1ccc(NC(=O)c2ccc(NC3=NCCN3)cc2)cc1
10

Let us examine a further case.
query: Identify the measured ΔTm of `N=C(N)Nc1ccc(NC(=O)c2ccc(NC(=N)N)cc2)cc1` for Nucleic Acid.
result: 11

----------
Test system: Nucleic Acid
experiment.summary: Binding affinity to (GC)4 DNA by SPR analysis
Format: nucleic-acid assay
Below, each entry is listed with its recorded K.

Known K results, listed for orientation:
Nc1ccc2cc3ccc(N)cc3nc2c1
6.5 ×10⁵ /M
N=C(N)Nc1ccc(NC(=O)c2ccc(NC(=N)N)cc2)cc1
< 1 ×10⁵ /M
O=C(Nc1ccc(NC2=NCCN2)cc1)c1ccc(NC2=NCCN2)cc1
< 1 ×10⁵ /M

Lab note: next molecule to report on.
query: Query: K; subject: `N=C(N)Nc1ccc(Nc2ccc(N=C3NCCN3)cc2)cc1`
result: < 1 ×10⁵ /M

----------
System: Nucleic Acid
experiment.summary: Binding affinity to AATT DNA by SPR analysis
Type: nucleic-acid assay
value.type: K

O=C(Nc1ccc(NC2=NCCN2)cc1)c1ccc(NC2=NCCN2)cc1
93.7 ×10⁵ /M
N=C(N)Nc1ccc(Nc2ccc(N=C3NCCN3)cc2)cc1
6.4 ×10⁵ /M
Nc1ccc2cc3ccc(N)cc3nc2c1
5.7 ×10⁵ /M

query: // returns reported K for input `N=C(N)Nc1ccc(NC(=O)c2ccc(NC(=N)N)cc2)cc1`
result: 71 ×10⁵ /M

query: I have this compound here, `N=C(N)Nc1ccc(C(=O)c2ccc(N=C3NCCN3)cc2)cc1` , and I need its recorded K.
result: 2.7 ×10⁵ /M
